test: Plasma levels and bioavailability in mice; assay type: in vivo, male C57BL/6 mice; conditions: male, C57BL/6, mouse, PO, 10 mg/kg, 5% PEG400/5% solutol HS-15/90% water, read-out: Bioavailability % F
measurementKind: bioavailability (%)
Record the value in %, omitting the unit from your answer.

input: Recorded bioavailability for CCC(C)C(N)C(=O)OC1CCC23CC24CCC2(C)C(C5(C)CCC(C(C)(C)O)O5)C(O)CC2(C)C4CC(O)C3C1(C)C (stereo not shown) , please?
output: 42

====

pEC50 values, listed per item
Target: telomerase (Homo sapiens, UniProt O14746)
Sequence (O14746 whole entry): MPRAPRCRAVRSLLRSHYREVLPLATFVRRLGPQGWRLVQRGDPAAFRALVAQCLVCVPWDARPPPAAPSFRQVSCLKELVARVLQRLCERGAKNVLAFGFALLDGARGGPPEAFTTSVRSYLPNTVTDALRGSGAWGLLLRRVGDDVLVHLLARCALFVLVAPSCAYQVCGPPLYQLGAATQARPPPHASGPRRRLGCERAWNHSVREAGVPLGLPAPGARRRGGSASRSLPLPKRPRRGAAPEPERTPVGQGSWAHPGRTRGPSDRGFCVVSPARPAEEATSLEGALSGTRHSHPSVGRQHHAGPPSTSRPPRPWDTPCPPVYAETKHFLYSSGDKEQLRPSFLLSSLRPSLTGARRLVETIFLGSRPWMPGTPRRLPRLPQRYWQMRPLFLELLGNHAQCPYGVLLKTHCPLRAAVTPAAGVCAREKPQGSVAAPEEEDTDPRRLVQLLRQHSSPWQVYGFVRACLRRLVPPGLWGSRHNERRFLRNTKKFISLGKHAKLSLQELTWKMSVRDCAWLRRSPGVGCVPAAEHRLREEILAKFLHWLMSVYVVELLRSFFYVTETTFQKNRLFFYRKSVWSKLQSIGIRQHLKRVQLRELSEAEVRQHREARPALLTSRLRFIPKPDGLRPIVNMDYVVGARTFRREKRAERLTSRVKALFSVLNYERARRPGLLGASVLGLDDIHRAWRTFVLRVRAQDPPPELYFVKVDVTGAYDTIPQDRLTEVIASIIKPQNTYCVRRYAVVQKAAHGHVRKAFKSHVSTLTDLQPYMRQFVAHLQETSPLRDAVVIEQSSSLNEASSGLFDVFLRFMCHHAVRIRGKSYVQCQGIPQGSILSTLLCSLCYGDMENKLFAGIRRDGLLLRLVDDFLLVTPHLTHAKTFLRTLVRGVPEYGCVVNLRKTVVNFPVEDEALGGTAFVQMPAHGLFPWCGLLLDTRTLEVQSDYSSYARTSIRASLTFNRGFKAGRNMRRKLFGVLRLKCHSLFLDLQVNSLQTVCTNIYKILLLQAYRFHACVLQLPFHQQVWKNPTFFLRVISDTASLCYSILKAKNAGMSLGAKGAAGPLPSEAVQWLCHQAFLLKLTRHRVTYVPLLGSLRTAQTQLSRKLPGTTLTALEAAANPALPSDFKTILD
Assay: Keratinocyte cell/TRAP assay (HEKneo-P cells)
Conditions: telomerase activation
Excerpt: Harley et al., U.S. Pat. […] Harley et al., U.S. Pat. […] Non-treatment control (NT) was also included. […]
pEC50: −log10 of the molar value.

Worked examples, 4 compounds total:
1. CC(C)C(N)C(=O)OC1CC2C3(C)CC(O)C(C4(C)CCC(C(C)(C)O)O4)C3(C)CCC23CC32CCC(O)C(C)(C)C12 (centres unmarked) | 7.49 to 7.55
2. CC(C)C(N)C(=O)OC1CCC23CC24CCC2(C)C(C5(C)CCC(C(C)(C)O)O5)C(O)CC2(C)C4CC(O)C3C1(C)C (centres unmarked) | 7.66 to 8.22
3. CC(C)C(N)C(=O)OC1CC2C3(C)CC(O)C(C4(C)CCC(C(C)(C)O)O4)C3(C)CCC23CC32CCC(OC(=O)C(N)C(C)C)C(C)(C)C12 (centres unmarked) | 7.30 to 7.39
4. CCC(C)C(N)C(=O)OC1CCC23CC24CCC2(C)C(C5(C)CCC(C(C)(C)O)O5)C(O)CC2(C)C4CC(O)C3C1(C)C (centres unmarked) | 7.68 to 8.05

Turning now to a further compound:
input: Recorded pEC50 for CC(C)(O)[C@@H]1CC[C@](C)([C@H]2[C@@H](O)C[C@@]3(C)[C@@H]4C[C@H](O)[C@H]5C(C)(C)[C@@H](O)CC[C@@]56C[C@@]46CC[C@]23C)O1 [Compound 2, reference compound] , please?
output: 7.52
